System: Escherichia coli IAI1
method-description: fold change of Putrescine concentration vs plate DMSO controls (fold change (ratio)); higher = more amine produced, active = hit call of the paper (significant change in both replicates, either direction)
measurement-context: incubation time: 27 h, anaerobic, 37 °C
Counter-ions that a name gives are not always drawn.
endpoint-name: fold change of Putrescine concentration

> print(dat)
                                   compound                            endpoint.name  test.result
1  O=c1[nH]c(=O)n([C@H]2C[C@H](O)[C@@H](CO)O2)cc1C(F)(F)F [Trifluridine] (20 µM)  fold change of Putrescine concentration        0.948
2  COc1cc(C(=O)NC2CCCNC2)cc(OC)c1OC (stereo not drawn) [Troxipide] (20 µM)  fold change of Putrescine concentration        0.965
3  CN[C@@H]1CCc2[nH]c3ccc(C(N)=O)cc3c2C1 [Frovatriptan succinate] (20 µM)  fold change of Putrescine concentration         1.03
4  CC(C)c1c(C(=O)Nc2ccccc2)c(-c2ccccc2)c(-c2ccc(F)cc2)n1CC[C@@H](O)C[C@@H](O)CC(=O)O [Atorvastatin] (20 µM)  fold change of Putrescine concentration         1.01
5  CC(C)=C/C(C)=N/Nc1nncc2ccccc12 [Budralazine] (20 µM)  fold change of Putrescine concentration        0.992
6  CN1CCC(=C2c3ccccc3Sc3ccccc32)CC1 [Pimethixene maleate] (20 µM)  fold change of Putrescine concentration        0.974
7  Cc1nnc(NS(=O)(=O)c2ccc(N)cc2)s1 [Sulfamethizole] (20 µM)  fold change of Putrescine concentration        0.961
8  O=C(CCCN1CC=C(n2c(=O)[nH]c3ccccc32)CC1)c1ccc(F)cc1 [Droperidol] (20 µM)  fold change of Putrescine concentration        0.977

###

Tested on: Escherichia coli IAI1
method-description: growth (OD595) fold change vs plate DMSO controls (fold change (ratio)); higher = more growth
measurement-context: incubation time: 27 h, anaerobic, 37 °C
Structures can show the parent of a compound that is named as a salt.
# reported growth; entries follow
endpoint-name: growth

> print(dat)
                                    compound  test.result
 1  Nc1c(Br)cc(Br)cc1CN[C@H]1CC[C@H](O)CC1 [Ambroxol hydrochloride] (20 µM)         1.07
 2  CCCCc1nc(Cl)c(CO)n1Cc1ccc(-c2ccccc2-c2nnn[nH]2)cc1 [Losartan] (20 µM)        0.991
 3  CN(C)C(=O)COC(=O)Cc1ccc(OC(=O)c2ccc(NC(=N)N)cc2)cc1 [Camostat mesylate] (20 µM)         1.01
 4  CCN(CCCc1ccccc1)CCCc1ccccc1 [Alverine citrate salt] (20 µM)         1.01
 5  CCOc1cc(CC(=O)N[C@@H](CC(C)C)c2ccccc2N2CCCCC2)ccc1C(=O)O [Repaglinide] (20 µM)          1.2
 6  CC(=O)O[C@]1(C(C)=O)CC[C@H]2[C@@H]3C=C(Cl)C4=CC(=O)CC[C@]4(C)[C@H]3CC[C@@]21C [Chlormadinone acetate] (20 µM)            1
 7  CC(=O)CC(c1ccccc1)c1c(O)c2ccccc2oc1=O (stereo unspecified) [Warfarin] (20 µM)         1.21
 8  COC(=O)CCc1ccc(OCC(O)CNC(C)C)cc1 (stereo unspecified) [Esmolol hydrochloride] (20 µM)         0.87
 9  c1ccc2c(c1)CCCC2C1=NCCN1 (stereo unspecified) [Tetrahydrozoline hydrochloride] (20 µM)        0.997
10  CC(C)(c1cc(Br)c(O)c(Br)c1)c1cc(Br)c(O)c(Br)c1 (20 µM)         1.04
11  CCC(=O)O[C@@H](O[P@](=O)(CCCCc1ccccc1)CC(=O)N1C[C@H](C2CCCCC2)C[C@H]1C(=O)O)C(C)C [Fosinopril] (20 µM)         1.09
12  COc1cc(C(=O)NS(=O)(=O)c2ccccc2C)ccc1Cc1cn(C)c2ccc(NC(=O)OC3CCCC3)cc12 [Zafirlukast] (20 µM)        0.946
13  CC(CN(C)C)CN1c2ccccc2Sc2ccccc21 (stereo unspecified) [Trimeprazine tartrate] (20 µM)         1.01
14  CC(=O)OCC1=C(C(=O)O)N2C(=O)[C@@H](NC(=O)Cc3cccs3)[C@H]2SC1 [Cephalothin sodium salt] (20 µM)         1.29
15  CC1(C)O[C@@H]2C[C@H]3[C@@H]4CCC5=CC(=O)C=C[C@]5(C)[C@H]4[C@@H](O)C[C@]3(C)[C@]2(C(=O)CO)O1 [Desonide] (20 µM)         1.02
16  O=C1CCc2cc(OCCCCc3nnnn3C3CCCCC3)ccc2N1 [Cilostazol] (20 µM)        0.963
